# target: Receptor-type tyrosine-protein kinase FLT3 (Homo sapiens)
# Sequence (P36888 whole entry): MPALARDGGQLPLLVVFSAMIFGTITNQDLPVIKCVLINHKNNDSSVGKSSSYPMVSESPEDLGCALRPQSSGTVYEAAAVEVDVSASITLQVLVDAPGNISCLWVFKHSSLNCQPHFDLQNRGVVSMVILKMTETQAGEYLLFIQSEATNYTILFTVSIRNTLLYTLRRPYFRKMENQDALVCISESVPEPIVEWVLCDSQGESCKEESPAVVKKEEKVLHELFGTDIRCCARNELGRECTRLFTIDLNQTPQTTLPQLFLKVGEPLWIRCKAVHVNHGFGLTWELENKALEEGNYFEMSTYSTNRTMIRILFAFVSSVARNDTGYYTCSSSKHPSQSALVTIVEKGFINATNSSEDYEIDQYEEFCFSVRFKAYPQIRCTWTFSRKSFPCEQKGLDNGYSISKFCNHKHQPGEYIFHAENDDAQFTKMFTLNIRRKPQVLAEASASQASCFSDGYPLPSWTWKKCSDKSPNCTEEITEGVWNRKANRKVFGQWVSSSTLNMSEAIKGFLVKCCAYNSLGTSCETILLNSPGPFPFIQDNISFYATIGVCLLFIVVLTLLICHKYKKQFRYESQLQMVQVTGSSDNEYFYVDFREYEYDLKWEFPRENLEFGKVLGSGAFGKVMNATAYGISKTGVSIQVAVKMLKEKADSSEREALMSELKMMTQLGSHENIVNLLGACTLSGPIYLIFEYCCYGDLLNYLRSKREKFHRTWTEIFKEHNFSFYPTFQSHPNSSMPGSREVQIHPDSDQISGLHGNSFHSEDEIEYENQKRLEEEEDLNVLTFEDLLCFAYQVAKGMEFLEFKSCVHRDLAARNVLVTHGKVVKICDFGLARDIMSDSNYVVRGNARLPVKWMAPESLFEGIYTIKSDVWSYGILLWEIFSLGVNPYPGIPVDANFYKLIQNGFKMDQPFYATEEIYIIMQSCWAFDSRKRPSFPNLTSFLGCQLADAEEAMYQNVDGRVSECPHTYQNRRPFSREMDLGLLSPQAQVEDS
# protocolText: Kinase Assay: The FLT3 inhibitory activity of the CDK4/6-FLT3 inhibitors was determined with a HTRF kinase assay. The FLT3 enzyme (GST-FLT3 fusion) was purchased from Carna Biosciences. An ULight-labeled synthetic peptide derived from human Janus kinase 1 (aa1015-1027, ULight-JAK1, PerkinElmer) was utilized as the phosphoacceptor substrate. The assay was conducted in a 384-well white OptiPlate (PerkinElmer). The 20 μL reaction mixture contained 50 nM ULight-JAK1, 116 μM ATP, 0.0385 ng/μL FLT3 and dilutions of test compounds in the kinase buffer (50 mM Hepes, pH 7.6, 1 mM EGTA, 10 mM MgCl2, 2 mM DTT, and 0.005% Tween 20). The reaction was allowed to proceed for 1 hour at room temperature and was stopped by adding 20 μL of 10 mM EDTA, 2 nM LANCE Eu-W1024 anti-phospho-tyrosine antibody in LANCE detection buffer (PerkinElmer). The plates were incubated at room temperature for 2 hours after addition of detection reagents and then read on an Envision multimode reader (PerkinElmer).
assayEndpoint: pIC50
Note on units: pIC50 is unitless, being -log10 of a concentration expressed in mol/L.

Per the records, this compound ( C[C@H]1CC[C@H](n2c3cnccc3c3cnc(Nc4ccc5c(n4)C(O)CN(CCO)C5)nc32)CC1 (stereo partly specified) ) has pIC50 equal to 8.54

The reported numbers originate from ChEMBL document CHEMBL3639325.
